Sourced from ChEMBL document CHEMBL1201862

system: RXF 393; experiment: NCI tumour cell line growth inhibition, 48 h
Active and inactive are the calls of the source. Cut-off read from the data, not from the text of the source: active = GI50 up to about 1.1 µM and inactive = higher.
Can you answer with just one of these options? active, inactive

Completed entries (count: 10):
CC(C)(N)C(=O)N[C@@H]1C(=O)N2[C@@H]1SC(C)(C)[C@@H]2C(=O)O = inactive
COc1ccc2c(-c3cc4ccccc4o3)cc(=O)oc2c1 = inactive
NCCCNCc1c2ccccc2c(CNCCCN)c2ccccc12 = inactive
COC(=O)[C@H](Cc1ccccc1)NC(=O)c1ccc(CNC(=O)/C=C/c2csc(-c3ccccc3)n2)cc1 = inactive
O=C(NNC(=O)c1ccco1)c1ccco1 = inactive
O=[As](O)(O)c1ccc2nc3cc([As](=O)(O)O)ccc3nc2c1 = inactive
C[C@]12C=CC(=O)C=C1[C@@H](F)C[C@H]1[C@@H]3CC[C@](O)(C(=O)CO)[C@@]3(C)C[C@H](O)[C@@]12F = inactive
CCOC(=O)c1nnsc1NC(=O)NN = inactive
CC[C@@]1(O)C(=O)OCc2c1cc1n(c2=O)Cc2cc3c(N)cccc3nc2-1 [9-AMINOCAMPTOTHECIN] = active
NC(N)=NCc1ccc2c(c1)OCO2 = inactive

Query: For Cc1ccc2c(/C=C/c3ccc(N(C)C)cc3)ccc(C(C)C)cc1-2 , which call appears in the assay record?
Response: inactive

Query: For COc1ccc2c(c1)-c1c(c3cc(OC)ccc3n1CCN1CCOCC1)CC2 , which call appears in the assay record?
Response: inactive

Query: For O=C(CCNC12CC3CC(CC(C3)C1)C2)c1ccccc1 , which call appears in the assay record?
Response: inactive

Query: For C=Cc1nc2c(Cl)ncnc2n1Cc1ccccc1 , which call appears in the assay record?
Response: inactive

Query: For COc1ccc(NC2C(=O)C3(C)CCC2C3(C)C)cc1 (configuration not stated) , which call appears in the assay record?
Response: inactive

Query: For CC(=O)OC1COC(n2c(-c3ccc(Cl)cc3)cc(-c3ccccc3)c(C#N)c2=S)C(OC(C)=O)C1OC(C)=O (configuration not stated) , which call appears in the assay record?
Response: inactive

Query: For C#CCNC(=O)N(CC#C)N=O , which call appears in the assay record?
Response: inactive
